Target or system methicillin-susceptible Staphylococcus aureus (MSSA): recorded log10(MIC) listed per item.
Answers are given as log10 of MIC in µg/mL.

// worked examples, log10(MIC) included
C[n+]1cc(-c2cc(C(=O)NCCO)cc(-c3ccc(C(C)(C)C)cc3)c2)nc2ccccc21: 0.60
CC(C)(C)c1cccc(-c2cnc3c(CNC(=N)N)cccc3n2)c1: 0.00
CC(C)(C)c1ccc(-c2cnc3c(CNC(=N)N)cccc3n2)cc1: 0.30
CC(C)(C)c1ccc(-c2cccc3c(CNC(=N)N)ncnc23)cc1: 0.90
C[n+]1cc(-c2cc(C(N)=O)cc(-c3ccc(C(C)(C)C)cc3)c2)nc2ccccc21: 0.30

Give the measured log10(MIC) of C[n+]1cc(-c2cccc(-c3ccccc3)c2)nc2ccccc21 .
-0.60

Would you mind doing CC(C)(C)c1ccc(-c2cc(C(=O)NCCN)cc(-c3cnc4ccccc4n3)c2)cc1 as well?
0.60

Would you mind doing CC(C)(C)c1ccc(-c2ccnc3c(CNC(=N)N)ccnc23)cc1 as well?
0.60

Source: patent US9822108B2
